System: OVCAR-3 ovarian
METHOD: NCI-60 one-dose screen, 48 h (100 = growth as untreated, 0 = no growth, -100 = all killed)
ASSAY_CONDITIONS: 10 µM unless noted
This is part of a sample that, as a whole, favours compounds with a hit. Of some 83,000 tested, about 20% had one in any assay.
For each record, write down the corresponding growth.
Numbers only, in %.

Some entries whose results are on file:
1. CN(C)c1ccc(/C=C\N=Nc2ccc(Br)cc2)cc1 = 67.9
2. CC1Cc2c(N(C)C)ncnc2N(C)c2ccc(Cl)cc21 (configuration not stated) = 5.13
3. COc1ccc(/C=C(\C#N)c2ccc([N+](=O)[O-])cc2)c2ccccc12 = 62.6
4. CCc1c(C(=O)Nc2ccc3ccccc3c2)[nH]c(C)c1C(C)=O = 103
5. Clc1ccc2c(c1)NC1(CCSc3ccccc31)n1nccc1-2 (configuration not stated) = 94.6
6. ClC1=C(Cl)C(Cl)=C(Cl)C1=Cc1ccc(Cl)cc1Cl = -83.7

Hey, quick one: what's growth for each of these?
1. COC(=O)C(CC(=O)c1ccc(-c2ccccc2)cc1)c1ccccc1 (configuration not stated)
2. CCCCCCCN(CCCCCCC)C(=N)c1ccc(OC)c2ccccc12
3. COc1ccc(C(=O)/C=C/c2cccc([N+](=O)[O-])c2)c(OC)c1
4. N#Cc1c(NC(=O)c2ccc([N+](=O)[O-])o2)[n+]([O-])c2cc(F)c(F)cc2[n+]1[O-]
5. CCC#CC[C@H]1C/C=C2/C(=O)C=C[C@@H]2C/C=C\CCCC(=O)O1
6. Cc1nc(Nc2cccnc2)sc1C(=O)/C=C/c1ccc(Cl)cc1

Result ::
10.6
-94.6
18.6
122
6.81
7.38

====

Tested on: 786-0 renal
METHOD: NCI-60 one-dose screen, 48 h (100 = growth as untreated, 0 = no growth, -100 = all killed)
ASSAY_CONDITIONS: 10 µM unless noted
This is part of a sample that, as a whole, favours compounds with a hit. Of some 83,000 tested, about 20% had one in any assay. Activity calls are given as the source filed them. Rule for the calls: active = growth percent below 10; inactive = the rest.
For each record, write down the corresponding growth.

Some entries whose results are on file:
1. COc1ccc2c(c1)NC(=O)CN2c1nc(NC2CC2)nc2ccccc12 = 19.6% (inactive)
2. O=C1N=C(c2c(-c3[nH]c(=O)c4ccc(Br)cc4c3O)c(O)c3ccccc3c2O)C(=O)c2cc(Br)ccc21 = -63.2% (active)
3. O=C(c1ccncc1)N1N=C(c2ccc(Cl)cc2)CC1c1c[nH]c2ccccc12 (stereo not drawn) = 104% (inactive)
4. O=C1CCCCN1CCCCC#Cc1ccccc1C#Cc1ccc([N+](=O)[O-])cc1 = 60.6% (inactive)
5. O=C(CNc1ccc(Cl)cc1)Nc1ccc(-c2nc3ccccc3s2)cc1 = 27% (inactive)
6. COc1ccc(OC)c(NC(=O)c2cc(S(=O)(=O)N3CCc4ccccc43)ccc2OC)c1 = 89.8% (inactive)

Hey, quick one: what's growth for each of these?
1. COc1cc(-c2csc(NC(=O)Nc3ccc(Cl)cc3Cl)n2)cc(OC)c1OC
2. O=C1C2=C(C(=O)c3c(O)ccc(O)c31)N(c1cccnc1)Cc1ccccc1O2
3. Clc1nc(-c2cccnc2)nc2sc3c(c12)CCCCCC3
4. O=c1oc2cc(OS(=O)(=O)c3ccc(F)cc3)ccc2c2c1CCCCC2

Result ::
1: 33% (inactive); 2: -86.7% (active); 3: 101% (inactive); 4: 76.2% (inactive)

====

Test system: SK-MEL-2 melanoma
METHOD: NCI-60 one-dose screen, 48 h (100 = growth as untreated, 0 = no growth, -100 = all killed)
ASSAY_CONDITIONS: 10 µM unless noted
This is part of a sample that, as a whole, favours compounds with a hit. Of some 83,000 tested, about 20% had one in any assay.
PROPERTY_LABEL: growth (%)
Answers are plain numbers, in %.

1) CCN1C(=O)/C(=c2\sc3n(c2=O)C2C(NN=3)N(CC)C(=S)N2CC)c2ccccc21 (configuration not stated) = 102
2) COc1ccc(/C(=N/O)c2cc(OC)c(OC)c(OC)c2)c(OC)c1N = 36.5
3) Cc1cc(C(=O)O)c(N)c(C)n1 = 119

Hey, quick one: what's growth for each of these?
1. O=C1C2=C(C(=O)c3c(O)ccc(O)c31)N(c1cccnc1)Cc1ccccc1O2
2. CCCCCCCCCCn1cc[n+](C)c1
3. Cc1cc2c(C(C)C)c(O)c(O)c(C=NCCCCC(=O)O)c2c(O)c1-c1c(C)cc2c(C(C)C)c(O)c(O)c(C=NCCCCC(=O)O)c2c1O
4. CCc1c(C(=O)Nc2ccc3ccccc3c2)[nH]c(C)c1C(C)=O
5. Clc1ccc(/C=C/c2nc(N3CCOCC3)c3nc(Cl)c(Cl)cc3n2)cc1

Result ::
1: -42.6; 2: 13.1; 3: 43.6; 4: 87.9; 5: 110

Hey, quick one: what's growth for each of these?
1. COc1ccc(S(=O)(=O)Nc2cc(/C=C\c3cc(OC)c(OC)c(OC)c3)cc(OC)c2OC)cc1OC
2. C=CCOc1cccc(/C=C/C(=O)c2sc(Nc3cccnc3)nc2C)c1
3. NCCSC(c1ccccc1)(c1ccccc1)c1ccccc1

Result ::
1. 36.6
2. 84.4
3. 25.6

====

Tested on: 786-0 renal
METHOD: NCI-60 one-dose screen, 48 h (100 = growth as untreated, 0 = no growth, -100 = all killed)
ASSAY_CONDITIONS: 10 µM unless noted
Experimental: Cells are grown in 96 well plates and exposed to the test compound for 48 hours. Compounds are tested at a single concentration, which is 10^-5 M for most compounds. The reported endpoint is percent growth (GI% or GIPRCNT), where numbers from 0 - 100% represent growth inhibition, and numbers from -100% - 0 represent cell death. For example, a value of 40 represents 60% growth inhibition. A value of 0 means no net growth occurred over the course of the experiment. […]
The panel holds about 83,000 compounds, 20% with a hit somewhere; the sample as a whole holds those more often.
PROPERTY_LABEL: growth (%)
One number for each entry, in %.

Some entries whose results are on file:
1. COc1ccc(S(=O)(=O)Nc2cc(/C=C\c3cc(OC)c(OC)c(OC)c3)cc(OC)c2OC)cc1OC = 18
2. COc1cccc(/C=C/c2c(C(=O)O)cccc2[N+](=O)[O-])c1OC = 99.1
3. Cc1cc(C(=O)O)c(N)c(C)n1 = 104

Hey, quick one: what's growth for each of these?
1. O=C(CNc1c(Cl)cccc1Cl)Nc1ccc(-c2nc3ccccc3s2)cc1
2. CCN1C(=O)N(CC)C2C1NN=c1s/c(=C3\C(=O)N(C4CCCC4)c4ccccc43)c(=O)n12 (stereo not drawn)
3. C=CCN=C1NC(=O)/C(=C/c2cc(C(C)(C)C)c(O)c(C(C)(C)C)c2)S1

Result ::
24.1
14.1
66.1

Hey, quick one: what's growth for each of these?
1. COc1ccc(/C=C2\CCCC3=C2NC(C)=NC3c2ccc(OC)c(OC)c2)cc1OC (stereo not drawn)
2. O=C(Nc1ccc(F)c(Cl)c1)c1n[nH]c(=O)c2ccccc12
3. CCOC(=O)[C@H](CSSc1ncnc2cc[nH]c12)NC(=O)[C@@H](C)c1ccc2cc(OC)ccc2c1
4. CCN1C(=O)/C(=c2\sc3n(c2=O)C2C(NN=3)N(CC)C(=S)N2CC)c2ccccc21 (stereo not drawn)
5. COc1cc2c(cc1OC)C1(C)N(CC2)C(=O)OC1(C)C (stereo not drawn)
6. Nc1c(C(=O)Nc2c(Cl)cccc2Cl)sc2nc3c(cc12)CCCCC3
7. CCOC(=O)CC(C#N)(CC(=O)OCC)C(=O)OCC

Result ::
9.19
115
25.5
99.5
102
59.8
104

====

Tested on: M14 melanoma
METHOD: NCI-60 one-dose screen, 48 h (100 = growth as untreated, 0 = no growth, -100 = all killed)
ASSAY_CONDITIONS: 10 µM unless noted
The panel holds about 83,000 compounds, 20% with a hit somewhere; the sample as a whole holds those more often.
For each record, write down the corresponding growth.
Give bare numbers, in %.

1) NC(CC(N)C(=O)O)C(=O)O (stereo unspecified) = 104
2) COc1ccc(NC(=O)/N=c2\oc3c(OC)cccc3cc2-c2cc3ccccc3[nH]2)cc1 = 93.5
3) CC(=O)Nc1ccc(S(=O)(=O)N2C(=O)CCC2C(=O)Nc2ccc(Br)cc2)cc1 (stereo unspecified) = 36.9
4) COC12CC(=O)C(C(C)=O)=C(O)C1(C)c1c(O)c(C)c(O)c(C(C)=O)c1O2 (stereo unspecified) = 66.7
5) CC(Br)C(Br)c1cc2c(cc1Br)OCO2 (stereo unspecified) = 94.3

Hey, quick one: what's growth for each of these?
1. CN(C)C/C=C/C(=O)Nc1cc2c(Nc3cccc(Cl)c3F)ncnc2cc1OCCOC(F)F
2. C[C@]12CC[C@@H]3c4cc(O)c(O)cc4CC[C@H]3[C@@H]1CC[C@@H]2O
3. CC1CCN(C(=O)CSc2nc3sc4c(c3c(=O)[nH]2)CCCC4)CC1
4. COc1ccc(/C=N/NC(=O)Cn2c(Cc3cccc4ccccc34)nc3ccccc32)cc1
5. O=C(N/N=C/c1c(Cl)cccc1Cl)c1ccccc1Nc1ccnc(C(F)(F)F)c1
6. COc1cccc(C2CC(=O)Nc3c2c(C)nn3-c2nc3ccccc3[nH]2)c1OC (stereo unspecified)

Result ::
[67.5, 23.4, 109, 105, 71.6, 65.4]
